This collection of values is drawn from patent US20180051079A1.

Biological target: T1, CD16A V158 (UniProt P08637 17-208, limits assumed)
T1 construct: Only the name and allotype are printed; also called FcγRIIIA
T1 sequence (P08637 17-208 F176V limits assumed): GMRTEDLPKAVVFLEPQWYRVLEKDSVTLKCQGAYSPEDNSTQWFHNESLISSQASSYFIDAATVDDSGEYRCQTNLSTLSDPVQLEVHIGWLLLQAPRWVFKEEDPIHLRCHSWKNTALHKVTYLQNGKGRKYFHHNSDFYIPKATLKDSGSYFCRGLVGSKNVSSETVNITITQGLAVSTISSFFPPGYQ
Test: assay not named in Table 4
The label is yes for binding relative to wild-type Fc below 2 and no for binding relative to wild-type Fc equal to or exceeding 2.

Sample answers from the record:
Binder: Fc variant F243L R292P V305I P396L (other, UniProt P01857-1 104-330, looked up, domain: Fc; also called Mutant 17) DKTHTCPPCPAPELLGGPSVFLLPPKPKDTLMISRTPEVTCVVVDVSHEDPEVKFNWYVDGVEVHNAKTKPPEEQYNSTYRVVSILTVLHQDWLNGKEYKCKVSNKALPAPIEKTISKAKGQPREPQVYTLPPSRDELTKNQVSLTCLVKGFYPSDIAVEWESNGQPENNYKTTPLVLDSDGSFFLYSKLTVDKSRWQQGNVFSCSVMHEALHNHYTQKSLSLSPGK
Assigned Label: no
--
Binder: Fc variant F243L R255L D270E P396L (other, UniProt P01857-1 104-330, looked up, domain: Fc) DKTHTCPPCPAPELLGGPSVFLLPPKPKDTLMISLTPEVTCVVVDVSHEEPEVKFNWYVDGVEVHNAKTKPREEQYNSTYRVVSVLTVLHQDWLNGKEYKCKVSNKALPAPIEKTISKAKGQPREPQVYTLPPSRDELTKNQVSLTCLVKGFYPSDIAVEWESNGQPENNYKTTPLVLDSDGSFFLYSKLTVDKSRWQQGNVFSCSVMHEALHNHYTQKSLSLSPGK
Assigned Label: yes
--
Binder: Fc variant R255L D270E P396L (other, UniProt P01857-1 104-330, looked up, domain: Fc) DKTHTCPPCPAPELLGGPSVFLFPPKPKDTLMISLTPEVTCVVVDVSHEEPEVKFNWYVDGVEVHNAKTKPREEQYNSTYRVVSVLTVLHQDWLNGKEYKCKVSNKALPAPIEKTISKAKGQPREPQVYTLPPSRDELTKNQVSLTCLVKGFYPSDIAVEWESNGQPENNYKTTPLVLDSDGSFFLYSKLTVDKSRWQQGNVFSCSVMHEALHNHYTQKSLSLSPGK
Assigned Label: yes
--
Binder: Fc variant F243L D270E P396L Q419H (other, UniProt P01857-1 104-330, looked up, domain: Fc) DKTHTCPPCPAPELLGGPSVFLLPPKPKDTLMISRTPEVTCVVVDVSHEEPEVKFNWYVDGVEVHNAKTKPREEQYNSTYRVVSVLTVLHQDWLNGKEYKCKVSNKALPAPIEKTISKAKGQPREPQVYTLPPSRDELTKNQVSLTCLVKGFYPSDIAVEWESNGQPENNYKTTPLVLDSDGSFFLYSKLTVDKSRWQHGNVFSCSVMHEALHNHYTQKSLSLSPGK
Assigned Label: yes
--
Binder: Fc variant F243L P247L N421K (other, UniProt P01857-1 104-330, looked up, domain: Fc) DKTHTCPPCPAPELLGGPSVFLLPPKLKDTLMISRTPEVTCVVVDVSHEDPEVKFNWYVDGVEVHNAKTKPREEQYNSTYRVVSVLTVLHQDWLNGKEYKCKVSNKALPAPIEKTISKAKGQPREPQVYTLPPSRDELTKNQVSLTCLVKGFYPSDIAVEWESNGQPENNYKTTPPVLDSDGSFFLYSKLTVDKSRWQQGKVFSCSVMHEALHNHYTQKSLSLSPGK
Assigned Label: yes

# input Check if binding relative to wild-type Fc falls below 2 for Fc variant R292P V305I P396L (other, UniProt P01857-1 104-330, looked up, domain: Fc; also called Mutant 15) DKTHTCPPCPAPELLGGPSVFLFPPKPKDTLMISRTPEVTCVVVDVSHEDPEVKFNWYVDGVEVHNAKTKPPEEQYNSTYRVVSILTVLHQDWLNGKEYKCKVSNKALPAPIEKTISKAKGQPREPQVYTLPPSRDELTKNQVSLTCLVKGFYPSDIAVEWESNGQPENNYKTTPLVLDSDGSFFLYSKLTVDKSRWQQGNVFSCSVMHEALHNHYTQKSLSLSPGK .
# output yes

# input Check if binding relative to wild-type Fc falls below 2 for Fc variant F243L D270E K392T P396L (other, UniProt P01857-1 104-330, looked up, domain: Fc) DKTHTCPPCPAPELLGGPSVFLLPPKPKDTLMISRTPEVTCVVVDVSHEEPEVKFNWYVDGVEVHNAKTKPREEQYNSTYRVVSVLTVLHQDWLNGKEYKCKVSNKALPAPIEKTISKAKGQPREPQVYTLPPSRDELTKNQVSLTCLVKGFYPSDIAVEWESNGQPENNYTTTPLVLDSDGSFFLYSKLTVDKSRWQQGNVFSCSVMHEALHNHYTQKSLSLSPGK .
# output no
